test system: LOX IMVI melanoma; assay: NCI-60 one-dose screen, 48 h (100 = growth as untreated, 0 = no growth, -100 = all killed); conditions: 10 µM unless noted
About 83,000 compounds went through this panel and 20% of them were active in at least one assay; those are over-represented in the sample as a whole.
growth of 30% or higher: satisfied. Under 30%: not satisfied.

The following compounds have reported results that may help.
compound	discreteLabel
O=C1C[C@H](N2C(=O)c3ccccc3S2(=O)=O)C2CO[C@@H]1O2	not satisfied
COc1cccc(-c2cn3c(ccc4ccccc43)n2)c1	satisfied
CCN(CC)c1ccc(CNc2cc(C)nc3ccc(OC)cc23)cc1	not satisfied
Cc1ccc(Nc2nc(N)nc(Nc3ccc4ccccc4c3)n2)cc1	satisfied
Oc1ccc2c(=S)cc(-c3ccc(Br)cc3)oc2c1O	not satisfied
Nc1ccc2c(c1)C(=O)NC2=O	satisfied
CS(=O)(=O)c1ccc(-c2cnc3ccc(-c4cccc(S(C)(=O)=O)c4)nn23)cc1	not satisfied
O=C(CNC1C2CC3CC(C2)CC1C3)Sc1nnc2sc3ccccc3n12 (stereo unspecified)	satisfied
O=C1CC(c2nc3ccccc3s2)CN1C1CCCCC1 (stereo unspecified)	satisfied
O=S(=O)(NCCCNc1cc(-c2cn(-c3ccccc3)nc2-c2ccccc2)ccn1)c1ccc(C(F)(F)F)cc1	satisfied

Then this compound:
Incoming: Kindly determine if growth recorded for "COc1ccc(-n2cc(-c3ccccc3)c3c(SCC(=O)N/N=C/c4ccc([N+](=O)[O-])cc4)ncnc32)cc1" is above or exactly 30%.
Outgoing: satisfied
